Ref: patent US6140335A

# system: 5-LO obtained from a preparation of rat leukaemic basophil cells (RBL-1) (Rattus norvegicus, UniProt P12527)
# Construct: 5-LO obtained from a preparation of rat leukaemic basophil cells (RBL-1); endogenous in cells
# Sequence (P12527 1-673): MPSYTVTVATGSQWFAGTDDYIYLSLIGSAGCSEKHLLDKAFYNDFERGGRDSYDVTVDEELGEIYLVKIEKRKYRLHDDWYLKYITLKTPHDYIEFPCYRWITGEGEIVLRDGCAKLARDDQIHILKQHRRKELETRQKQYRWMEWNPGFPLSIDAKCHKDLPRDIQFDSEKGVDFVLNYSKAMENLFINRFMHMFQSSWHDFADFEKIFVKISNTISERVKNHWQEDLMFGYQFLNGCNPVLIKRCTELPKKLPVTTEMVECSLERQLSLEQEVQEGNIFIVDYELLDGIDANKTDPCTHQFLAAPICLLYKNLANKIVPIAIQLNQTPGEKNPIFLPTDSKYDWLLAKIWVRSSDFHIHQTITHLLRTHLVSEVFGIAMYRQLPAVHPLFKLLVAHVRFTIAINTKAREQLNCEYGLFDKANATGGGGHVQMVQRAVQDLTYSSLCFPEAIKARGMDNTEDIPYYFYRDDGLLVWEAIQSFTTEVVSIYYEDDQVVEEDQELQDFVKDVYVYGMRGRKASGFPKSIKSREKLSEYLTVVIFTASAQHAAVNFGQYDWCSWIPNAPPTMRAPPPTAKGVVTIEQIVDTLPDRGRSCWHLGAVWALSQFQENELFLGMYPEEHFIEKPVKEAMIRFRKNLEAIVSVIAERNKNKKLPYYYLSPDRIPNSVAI
# test method notes: Inhibition of 5-LO in Rats (RBL-1 preparation)
# measurement setup: rat 5-LO (RBL-1); linoleic acid; 5 min preincubation, 8 min at room temperature; absorption at 234 nm; read-out: inhibitory concentration (IC50)
observable: IC50 (µM)
Express the result in µM but write the number alone.

Qu. Fill in IC50 for record CN(c1nccc(O)n1)C1CCN(c2nc3ccccc3n2Cc2ccc(F)cc2)CC1
Ans. 4.6

====

# system: 5-LO isolated from commercial HL60 cells (Homo sapiens, UniProt P09917)
# Construct: 5-LO isolated from commercial HL60 cells; endogenous in cells
# Sequence (P09917 whole entry): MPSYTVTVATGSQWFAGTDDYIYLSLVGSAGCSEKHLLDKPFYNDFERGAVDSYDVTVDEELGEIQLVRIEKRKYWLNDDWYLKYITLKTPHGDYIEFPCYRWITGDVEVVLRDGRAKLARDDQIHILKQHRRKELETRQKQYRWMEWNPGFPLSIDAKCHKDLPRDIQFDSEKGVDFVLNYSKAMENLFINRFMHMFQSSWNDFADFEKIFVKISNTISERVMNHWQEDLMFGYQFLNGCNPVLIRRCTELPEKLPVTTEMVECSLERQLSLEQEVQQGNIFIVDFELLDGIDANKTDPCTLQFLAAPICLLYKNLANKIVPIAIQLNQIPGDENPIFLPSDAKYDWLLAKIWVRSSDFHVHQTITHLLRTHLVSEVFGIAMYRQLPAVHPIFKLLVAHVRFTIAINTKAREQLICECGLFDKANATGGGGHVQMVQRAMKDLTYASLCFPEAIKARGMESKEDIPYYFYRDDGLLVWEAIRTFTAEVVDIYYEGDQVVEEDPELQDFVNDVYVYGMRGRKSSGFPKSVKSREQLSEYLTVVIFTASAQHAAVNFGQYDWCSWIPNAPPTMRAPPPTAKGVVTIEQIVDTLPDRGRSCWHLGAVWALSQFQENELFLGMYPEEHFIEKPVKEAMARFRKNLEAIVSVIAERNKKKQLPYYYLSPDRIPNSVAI
# test method notes: Inhibition of 5-LO in Man (HL60 5-LO)
# measurement setup: 5-LO from HL60 cells; arachidonic acid 0.4 μM; 10 min at room temperature; 5-HETE by RIA; read-out: inhibitory concentration (IC50)
observable: IC50 (µM)
Express the result in µM but write the number alone.

Qu. Fill in IC50 for record CN(c1nccc(O)n1)C1CCN(c2nc3ccccc3n2Cc2ccc(F)cc2)CC1
Ans. 16
